Form: system (Human GGT1 (gamma-glutamyl transpeptidase, GGT) (Homo sapiens, UniProt P19440)), quantity (Ki), values below.
Measured Attribute: Ki (µM)

{"Compound": "COc1ccc(Cc2nnc(NS(=O)(=O)c3cccc4ccccc34)s2)cc1 [compound 6, Compound 6]", "Endpoint Unit": "µM", "Number": 45.7}
{"Compound": "Cc1cccc(Cc2nnc(NS(=O)(=O)c3ccc([N+](=O)[O-])cc3)s2)c1 [compound 18, Compound 18]", "Endpoint Unit": "µM", "Number": 34.3}
{"Compound": "COc1ccc(Cc2nnc(NS(=O)(=O)c3ccc(Cl)cc3)s2)cc1 [compound 10, Compound 10]", "Endpoint Unit": "µM", "Number": 13.4}
{"Compound": "Cc1ccc(Cc2nnc(NS(=O)(=O)c3ccc([N+](=O)[O-])cc3)s2)cc1 [compound 17, Compound 17]", "Endpoint Unit": "µM", "Number": 56.9}
